From: patent US4252807A

system: normolyphaemic rats; test: normolyphaemic rats, serum lipids (Table 2); type: in vivo, rat; design: unit not given here; conditions: 50 mg/kg p.o., Control 185.1
experimental readout: Serum triglyceride
Answers are plain numbers.

CCOC(=O)C=C1CCCn2c1ncc(C(=O)OCC)c2=O    127.9
CCOC(=O)C1=CNC2C(CC(=O)O)CCCN2C1=O (stereo not shown)    155.5
COC(=O)C=C1CCC(C)n2c1ncc(C(=O)OC)c2=O (stereo not shown)    107.9

q: Return Serum triglyceride measured with normolyphaemic rats given this compound: CCOC(=O)c1cnc2n(c1=O)CCCC2CC(=O)O (stereo not shown)
a: 127.5
